- Study System: adenosine A2A receptor (Homo sapiens, UniProt P29274)
- Construct: purchased Receptor Biology Inc
- Sequence (P29274 whole entry): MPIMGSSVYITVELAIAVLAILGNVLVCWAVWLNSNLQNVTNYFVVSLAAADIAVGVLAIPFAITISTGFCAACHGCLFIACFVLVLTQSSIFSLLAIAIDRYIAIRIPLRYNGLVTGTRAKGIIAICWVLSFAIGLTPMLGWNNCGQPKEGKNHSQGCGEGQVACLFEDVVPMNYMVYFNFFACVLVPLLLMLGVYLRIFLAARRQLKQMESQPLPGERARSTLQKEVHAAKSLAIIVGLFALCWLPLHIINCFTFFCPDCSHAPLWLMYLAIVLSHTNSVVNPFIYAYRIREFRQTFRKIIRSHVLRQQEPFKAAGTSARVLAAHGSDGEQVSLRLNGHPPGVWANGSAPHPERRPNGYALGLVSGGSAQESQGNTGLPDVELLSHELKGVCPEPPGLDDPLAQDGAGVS
- Method Summary: Binding ability to adenosine A2A receptor (3H-CGS21680 displacement)
- Condition Info: A2A receptor membrane sample, Cheng-Prusoff
Measured Attribute: Ki (nM)
# value in nM; strip the unit string

// below: answered molecules
INSERT INTO measurements (entry_smiles, endpoint_unit, observed_measurement) VALUES
  ('C=CCn1cc(-c2cnc(N)nc2-c2ccco2)ccc1=O', 'nM', 2),
  ('Cn1cc(-c2cnc(N)nc2-c2ccco2)ccc1=O', 'nM', 6);

# next molecule below
# query: Ki of entry CCn1cc(-c2cnc(N)nc2-c2ccco2)ccc1=O
3

Where do the numbers come from? From patent US7396836B2.
